Measured Dmax by item
Molecular target: BRAF G466V (Homo sapiens, UniProt P15056, G466V)
Construct: Horizon Discovery (HCT-116 BRAF−/− cells); host or cells: HCT-116 BRAF−/− cells, clone 8, lentiviral transduction
Sequence (P15056 whole entry G466V): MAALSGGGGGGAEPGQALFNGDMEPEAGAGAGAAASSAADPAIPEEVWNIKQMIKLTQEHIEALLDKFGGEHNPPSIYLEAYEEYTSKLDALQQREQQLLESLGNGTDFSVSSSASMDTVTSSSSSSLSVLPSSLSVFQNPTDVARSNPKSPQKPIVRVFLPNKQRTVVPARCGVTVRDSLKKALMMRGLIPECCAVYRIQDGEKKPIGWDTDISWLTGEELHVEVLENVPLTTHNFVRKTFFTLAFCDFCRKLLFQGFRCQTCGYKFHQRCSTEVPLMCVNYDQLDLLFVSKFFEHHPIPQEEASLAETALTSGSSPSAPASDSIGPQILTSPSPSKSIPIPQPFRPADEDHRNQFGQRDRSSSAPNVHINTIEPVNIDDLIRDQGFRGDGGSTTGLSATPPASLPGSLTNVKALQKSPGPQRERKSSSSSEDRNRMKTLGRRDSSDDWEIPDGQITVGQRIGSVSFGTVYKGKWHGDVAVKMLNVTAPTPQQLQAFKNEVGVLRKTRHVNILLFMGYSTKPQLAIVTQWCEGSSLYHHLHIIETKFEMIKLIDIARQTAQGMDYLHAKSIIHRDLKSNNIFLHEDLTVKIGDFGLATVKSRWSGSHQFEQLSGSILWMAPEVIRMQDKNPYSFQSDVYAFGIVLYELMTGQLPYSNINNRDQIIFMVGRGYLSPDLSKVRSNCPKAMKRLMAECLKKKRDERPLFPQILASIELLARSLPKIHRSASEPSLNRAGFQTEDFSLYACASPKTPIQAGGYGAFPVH
Test: BRAF HiBiT degradation assay, C-terminal HiBiT-tagged BRAF G466V overexpressed in HCT-116 BRAF−/− cells (clone 8), Nano-Glo HiBiT Lytic assay
Assay type: cell-based
Conditions: BRAF G466V (Class 3), HCT-116 BRAF−/− cells; observed Dmax relative to DMSO control

compound: CCCS(=O)(=O)Nc1cccc(-c2nc(C3CCN(C(=O)C4CCN(C(=O)C5CCN(c6ccc(C7CCC(=O)NC7=O)cn6)CC5)CC4)CC3)sc2-c2ccnc(N)n2)c1F (racemic)
measured.target: BRAF G466V (Homo sapiens, UniProt P15056, G466V)
Dmax: > 70%

compound: O=C1CC[C@H](c2ccc(N3CCC(CN4CCN(c5ccc(-n6cc(-c7cc(Cl)cc(NS(=O)(=O)N8CC(F)C8)c7F)c(-c7ccncc7)n6)c(F)c5)CC4)CC3)cc2)C(=O)N1
measured.target: BRAF G466V (Homo sapiens, UniProt P15056, G466V)
Dmax: > 70%

compound: O=C1CCC(c2ccc(N3CCC(CN4CCN(c5ccc(-n6cc(-c7cc(Cl)cc(NS(=O)(=O)C8CCCC8)c7F)c(-c7ccncc7)n6)cc5)CC4)CC3)nc2)C(=O)N1 (racemic)
measured.target: BRAF G466V (Homo sapiens, UniProt P15056, G466V)
Dmax: > 70%

compound: C[C@@H]1CN(c2ccc(-n3cc(-c4cc(Cl)cc(NS(=O)(=O)N5CCCC5)c4F)c(-c4ccncc4)n3)cc2)CCN1CC1CCN(c2ccc(C3CCC(=O)NC3=O)cn2)CC1 (mixture of isomers)
measured.target: BRAF G466V (Homo sapiens, UniProt P15056, G466V)
Dmax: > 70%

compound: O=C1CCN(c2ccc(N3CCC(CN4CCN(c5ccc(-n6cc(-c7cc(Cl)cc(NS(=O)(=O)N8CC[C@@H](F)C8)c7F)c(-c7ccncc7)n6)c(F)c5)CC4)CC3)nc2)C(=O)N1
measured.target: BRAF G466V (Homo sapiens, UniProt P15056, G466V)
Dmax: 30 to 70%

compound: CCCS(=O)(=O)Nc1cc(Cl)cc(-c2cn(-c3ccc(N4CCN(CC5CCN(c6ccc(N7CCC(=O)NC7=O)cc6)CC5)[C@H](C)C4)cc3)nc2-c2ccncc2)c1F
measured.target: BRAF G466V (Homo sapiens, UniProt P15056, G466V)
Dmax: > 70%

compound: O=C1CC[C@H](c2ccc(N3CCC(CN4CCN(c5ccc(-n6cc(-c7cc(F)cc(NS(=O)(=O)N8CCCC8)c7F)c(-c7ccncc7)n6)cc5)CC4)CC3)nc2)C(=O)N1
measured.target: BRAF G466V (Homo sapiens, UniProt P15056, G466V)
Dmax: > 70%

compound: CCN(C)S(=O)(=O)Nc1cc(F)cc(-c2cn(-c3ccc(N4CCN(CC5CCN(c6ccc([C@H]7CCC(=O)NC7=O)cn6)CC5)CC4)cc3)nc2-c2ccncc2)c1F
measured.target: BRAF G466V (Homo sapiens, UniProt P15056, G466V)
Dmax: > 70%

compound: O=C1CCC(c2ccc(N3CCC(CN4CCN(c5cnc(-n6cc(-c7cc(Cl)cc(NS(=O)(=O)N8CCCC8)c7F)c(-c7ccncc7)n6)nc5)CC4)CC3)nc2)C(=O)N1 (racemic)
measured.target: BRAF G466V (Homo sapiens, UniProt P15056, G466V)
Dmax: > 70%

compound: O=C1CCC(c2ccc(N3CCC(CN4CCCN(c5ccc(-n6cc(-c7cc(Cl)cc(NS(=O)(=O)N8CCCC8)c7F)c(-c7ccncc7)n6)c(F)c5)CC4)CC3)nc2)C(=O)N1 (racemic)
measured.target: BRAF G466V (Homo sapiens, UniProt P15056, G466V)
Dmax: 30 to 70%
